The origin of these recorded values is patent US12441726B2.

target: BRM (Homo sapiens, UniProt P51531); test: ATPase catalytic activity assay (ADP-Glo), BRM; details: 30 nM BRM, 400 μM ATP
Sequence (P51531 whole entry): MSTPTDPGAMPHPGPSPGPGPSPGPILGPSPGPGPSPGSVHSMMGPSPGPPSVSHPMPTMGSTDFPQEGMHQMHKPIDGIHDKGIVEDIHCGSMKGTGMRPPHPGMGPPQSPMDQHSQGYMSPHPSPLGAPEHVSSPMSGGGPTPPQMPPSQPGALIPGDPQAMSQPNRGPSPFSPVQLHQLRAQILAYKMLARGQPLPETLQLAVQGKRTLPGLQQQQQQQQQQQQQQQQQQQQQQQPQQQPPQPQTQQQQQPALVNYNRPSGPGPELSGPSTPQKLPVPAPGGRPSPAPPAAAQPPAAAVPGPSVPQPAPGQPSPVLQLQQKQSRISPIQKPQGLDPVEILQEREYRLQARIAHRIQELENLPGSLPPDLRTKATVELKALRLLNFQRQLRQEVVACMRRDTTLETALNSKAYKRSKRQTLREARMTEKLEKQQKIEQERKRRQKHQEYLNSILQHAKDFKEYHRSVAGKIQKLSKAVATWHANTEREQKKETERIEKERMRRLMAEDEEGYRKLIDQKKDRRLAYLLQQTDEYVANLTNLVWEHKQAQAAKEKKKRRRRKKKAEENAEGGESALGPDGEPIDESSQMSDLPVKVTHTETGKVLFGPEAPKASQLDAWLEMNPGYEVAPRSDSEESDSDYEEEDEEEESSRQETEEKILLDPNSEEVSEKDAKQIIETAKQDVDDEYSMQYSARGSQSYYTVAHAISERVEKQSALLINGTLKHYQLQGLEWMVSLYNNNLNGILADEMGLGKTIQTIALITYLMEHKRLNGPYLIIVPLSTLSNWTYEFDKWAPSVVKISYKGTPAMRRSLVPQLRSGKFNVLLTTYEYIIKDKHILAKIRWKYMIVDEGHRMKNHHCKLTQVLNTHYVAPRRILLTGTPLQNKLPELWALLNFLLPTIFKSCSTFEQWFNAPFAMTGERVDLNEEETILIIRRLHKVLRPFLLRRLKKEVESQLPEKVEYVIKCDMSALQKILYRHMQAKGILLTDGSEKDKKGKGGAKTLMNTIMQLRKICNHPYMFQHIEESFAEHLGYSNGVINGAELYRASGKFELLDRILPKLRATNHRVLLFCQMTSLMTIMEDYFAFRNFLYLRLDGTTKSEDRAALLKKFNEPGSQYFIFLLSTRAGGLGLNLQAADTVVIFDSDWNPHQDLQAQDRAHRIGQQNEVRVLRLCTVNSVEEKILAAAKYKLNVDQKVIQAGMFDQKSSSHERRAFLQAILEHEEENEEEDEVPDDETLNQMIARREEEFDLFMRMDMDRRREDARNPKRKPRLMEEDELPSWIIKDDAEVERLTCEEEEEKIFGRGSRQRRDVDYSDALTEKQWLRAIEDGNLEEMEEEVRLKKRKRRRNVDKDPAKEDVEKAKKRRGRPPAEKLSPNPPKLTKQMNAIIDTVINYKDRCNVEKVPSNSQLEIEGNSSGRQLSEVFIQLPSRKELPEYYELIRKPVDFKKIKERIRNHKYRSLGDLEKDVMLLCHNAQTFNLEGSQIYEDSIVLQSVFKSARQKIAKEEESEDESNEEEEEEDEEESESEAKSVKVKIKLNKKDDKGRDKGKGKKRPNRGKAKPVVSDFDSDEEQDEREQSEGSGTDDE
MEASUREMENT TYPE: BRM Max % Inhibition

{"STRUCTURE SMILES": "C[C@@]1(O)COCc2ccc(C(=O)NCc3cc4nc(-c5ccccc5)ccc4cn3)cc21", "MEAS VALUE": "76%"}
{"STRUCTURE SMILES": "Cn1nc(-c2ccc3cnc(CNC(=O)c4ccc5c(c4)[C@](C)(C#N)COC5)cc3n2)cc1C(F)F", "MEAS VALUE": "91%"}
{"STRUCTURE SMILES": "C[C@@]1(C#N)COCc2c(F)cc(C(=O)NCc3cc4cc(-c5cncc(N6CCC6)n5)ccc4cn3)cc21", "MEAS VALUE": "104%"}
{"STRUCTURE SMILES": "C[C@@]1(C#N)COCc2ncc(C(=O)NCc3cc4nc(-c5cc(F)cc(N6CCC6)c5)ccc4cn3)cc21", "MEAS VALUE": "100%"}
{"STRUCTURE SMILES": "C[C@@]1(C#N)COCc2ccc(C(=O)NCc3cc4nc(-c5ccncc5)sc4cn3)cc21", "MEAS VALUE": "84%"}
{"STRUCTURE SMILES": "COc1ccccc1N1CCc2cnc(CNC(=O)c3ccc4c(c3)[C@](C)(C#N)COC4)cc2C1", "MEAS VALUE": "87%"}
{"STRUCTURE SMILES": "COC[C@H](NC(=O)c1ccc2c(c1)[C@](C)(C#N)COC2)c1cc(C#Cc2ccccc2)ccn1", "MEAS VALUE": "68%"}
